- study-system: Hop1 (Saccharomyces cerevisiae, UniProt P20050)
- Sequence (P20050 1-605): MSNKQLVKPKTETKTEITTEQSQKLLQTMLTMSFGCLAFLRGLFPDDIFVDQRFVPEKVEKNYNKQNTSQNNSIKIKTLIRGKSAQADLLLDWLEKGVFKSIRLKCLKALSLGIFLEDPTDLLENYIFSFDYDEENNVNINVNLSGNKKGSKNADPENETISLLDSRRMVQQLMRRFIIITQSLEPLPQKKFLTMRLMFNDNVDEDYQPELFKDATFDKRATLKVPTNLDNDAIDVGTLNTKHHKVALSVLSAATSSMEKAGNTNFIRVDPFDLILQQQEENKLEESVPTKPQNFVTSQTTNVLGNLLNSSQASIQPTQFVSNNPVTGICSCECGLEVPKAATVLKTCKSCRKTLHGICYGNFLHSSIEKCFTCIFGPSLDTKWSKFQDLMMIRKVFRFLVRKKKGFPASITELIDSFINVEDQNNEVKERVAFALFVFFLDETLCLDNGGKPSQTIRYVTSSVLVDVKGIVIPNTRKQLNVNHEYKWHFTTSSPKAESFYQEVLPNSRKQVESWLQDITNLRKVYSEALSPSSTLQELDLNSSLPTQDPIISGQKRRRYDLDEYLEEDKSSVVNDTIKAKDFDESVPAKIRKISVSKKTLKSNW
readout-kind: Kd

INSERT INTO results (compound, readout_kind, assay_value) VALUES
  ('Nc1ncnc2c1ncn2C1OC(COP(=O)(O)OP(=O)(O)OP(=O)(O)O)C(O)C1O (stereo not shown) [ATP]', 'Kd', '~32.9 µM');
